TARGET_DESC: Protein translocase subunit SecA (Escherichia coli (strain K12)) (UniProt P10408)
Sequence (P10408 whole entry): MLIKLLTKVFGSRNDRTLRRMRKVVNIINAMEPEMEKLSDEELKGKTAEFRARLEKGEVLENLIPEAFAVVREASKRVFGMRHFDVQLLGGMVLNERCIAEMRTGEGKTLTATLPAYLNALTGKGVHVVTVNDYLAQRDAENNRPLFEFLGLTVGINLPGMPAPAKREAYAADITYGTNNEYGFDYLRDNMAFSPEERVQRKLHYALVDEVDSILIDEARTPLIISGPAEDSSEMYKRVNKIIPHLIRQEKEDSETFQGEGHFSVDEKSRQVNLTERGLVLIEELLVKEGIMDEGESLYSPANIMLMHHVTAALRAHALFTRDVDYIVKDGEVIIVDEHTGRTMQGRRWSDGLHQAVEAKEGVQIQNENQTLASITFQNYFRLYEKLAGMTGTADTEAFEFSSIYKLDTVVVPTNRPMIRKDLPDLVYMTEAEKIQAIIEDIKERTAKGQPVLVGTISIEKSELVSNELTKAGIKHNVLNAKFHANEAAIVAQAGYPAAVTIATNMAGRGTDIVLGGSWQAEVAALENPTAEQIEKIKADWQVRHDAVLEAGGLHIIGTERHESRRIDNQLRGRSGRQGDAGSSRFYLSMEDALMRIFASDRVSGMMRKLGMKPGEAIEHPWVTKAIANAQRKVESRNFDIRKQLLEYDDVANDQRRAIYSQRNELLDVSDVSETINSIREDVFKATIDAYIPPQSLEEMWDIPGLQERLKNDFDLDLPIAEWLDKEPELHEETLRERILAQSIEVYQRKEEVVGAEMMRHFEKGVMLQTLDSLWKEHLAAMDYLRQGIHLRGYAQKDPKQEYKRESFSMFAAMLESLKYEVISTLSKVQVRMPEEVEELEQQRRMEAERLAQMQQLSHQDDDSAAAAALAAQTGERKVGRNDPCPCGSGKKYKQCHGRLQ
TEST_METHOD_NOTES: Assay to Identify E. coli SecA ATPase Inhibitors
Type: functional
Parameters: scale not given: direction of the effect not stated beside the values
CONDITION_SET: 30 µM
Potency and affinity values are given separately.
OBSERVATION_TYPE: Percent Effect
Please answer using the number first and the unit second.

The examples below pair each entry with its known result.
1) O=C(Cn1ccc2ccc(Br)cc21)NC[C@@H]1CCCN2CCCC[C@H]12
-9.26%
2) CN(C)C(=O)CNC(=O)Nc1cccc(Cl)c1SC(F)F
-3.28%
3) CC(=O)N(Cc1ncc(C(C)C)o1)C1CCN(Cc2nccn2C)C1 (stereo unspecified)
-2.57%

Q: Give reported Percent Effect value for `Cc1nc(COC[C@@H]2CC[C@H]3[C@H](CCN3S(C)(=O)=O)O2)cs1`
Result: 1.19%

Q: Give reported Percent Effect value for `COc1cccn(CC(=O)N(C)CCOc2cc(C)cc(C)c2)c1=O`
Result: -5.42%
